- conditionSummary: female, Sprague Dawley, rat, plasma, po, 1000 mg/kg
readoutKind: Cmax (nM)
Write down the numeric answer in nM and omit the unit.

O=C(O)[C@H]1O[C@@H](Oc2c(-c3ccc(O)c(O)c3)oc3cc(O)cc(O)c3c2=O)[C@H](O)[C@@H](O)[C@@H]1O [Quercetin glucuronide, quercetin-3-O-glucuronide]	23

# evaluate next
Task: Look up Cmax for this molecule: `O=C(O)CNC(=O)c1ccccc1`
Result: 2060

---

- conditionSummary: female, Sprague Dawley, rat, urine, po, 75 mg/kg
# reported Tmax; entries follow

COc1cc(C(=O)O)cc(OC)c1O	0 to 12 h
O=C(O)Cc1ccc(O)cc1 [4-OH-PAA, 4-hydroxyphenylacetic acid]	0 to 24 h

Turning now to a further compound:
Task: Bench note: what Tmax did `O=c1c(O)c(-c2ccc(O)c(O)c2)oc2cc(O)cc(O)c12` show?
Result: 0 to 12 h

---

- conditionSummary: female, Sprague Dawley, rat, urine, po, 350 mg/kg
readoutKind: Tmax

O=C(O)Cc1ccc(O)cc1 [4-OH-PAA, 4-hydroxyphenylacetic acid]	0 to 24 h

Task: So what does the record say about Tmax for COc1cc(C(=O)O)cc(OC)c1O [Syringic acid, syringic acid] ?
Result: 0 to 12 h

Task: Next record, please: O=C(O)CNC(=O)c1cccc(O)c1 [3-OH-hippuric acid, 3-hydroxyhippuric acid]
Result: 12 to 24 h

Task: Also check O=C(O)[C@H]1O[C@@H](Oc2c(-c3ccc(O)c(O)c3)oc3cc(O)cc(O)c3c2=O)[C@H](O)[C@@H](O)[C@@H]1O [Quercetin glucuronide, quercetin-3-O-glucuronide]
Result: 0 to 12 h

Task: Request: O=C(/C=C/c1ccc(O)c(O)c1)O[C@@H]1C[C@](O)(C(=O)O)C[C@@H](O)[C@H]1O [Chlorogenic acid, chlorogenic acid]
Result: 0 to 24 h

Task: Request: O=C(O)CNC(=O)c1ccccc1 [Hippuric acid, hippuric acid]
Result: 12 to 24 h

Task: Now consider O=C(O)/C=C/c1ccc(O)c(O)c1 [Caffeic acid, caffeic acid] .
Result: 0 to 12 h

Task: Then this compound: O=c1c(O)c(-c2ccc(O)c(O)c2)oc2cc(O)cc(O)c12 [Quercetin, quercetin]
Result: 0 to 12 h

---

- conditionSummary: Low dose (75 mg/kg bw); urine; mean ± SD
readoutKind: Cmax (nmol excreted)

COc1cc(C(=O)O)cc(OC)c1O	1.03 ± 0.30 nmol excreted
COc1ccc(CC(=O)O)cc1O	np
OC[C@H]1O[C@@H](Oc2cc3c(O)cc(O)cc3[o+]c2-c2cc(O)c(O)c(O)c2)[C@H](O)[C@@H](O)[C@@H]1O [Delphinidin Glucoside, delphindin-3-O-glucoside]	np
OC[C@H]1O[C@@H](Oc2cc3c(O)cc(O)cc3[o+]c2-c2ccc(O)c(O)c2)[C@H](O)[C@@H](O)[C@@H]1O [Cyanidin Glucoside, cyanidin-3-O-glucoside]	np
O=C(O[C@@H]1O[C@H](C(=O)O)[C@@H](O)[C@H](O)[C@H]1O)c1ccccc1 [BzA glucuronide]	np

Task: Look up Cmax (nmol excreted) for this compound: COc1ccc(CCC(=O)O)cc1O [3-OH-4-OMe-PPA, 3-hydroxy-4-methoxyphenylpropionic acid]
Result: 0.82 ± 0.58 nmol excreted

Task: Same again, this time with O=C(O)[C@H]1O[C@@H](Oc2c(-c3ccc(O)c(O)c3)oc3cc(O)cc(O)c3c2=O)[C@H](O)[C@@H](O)[C@@H]1O [Quercetin glucuronide, quercetin-3-O-glucuronide]
Result: np
